Attribute: purified protein yield per well
procedureDetails: purified protein yield per well (BCA); higher = higher soluble expression
experimentalEndpoint: purified protein yield per well

1. CTWRGPNPPPATLDAPMGPFTTTSSVVTTSPGFGDGTMYYPDTEPGPFGVVAVAPGWLASQNSLDTLGNRIASHGFVVITIDVNRPRSDGPQSRADQLLAALDQVANEAAVAGIADNTRQAVMGHSMGGGGALYASIDRPALKASIPLAPWARGADFSAVTVPTMIIGCEDDTVAPVGSHAIAFYDAIANTVPKAYAEIADASHSCVNDFNTDPLETAEVASSAVSFLKRFVDNDSRYTPFLCPIPELDPPLSDRRATCPYN [TEP148]; < 25 µg
2. IENGPAPTLADLQKDGPYAVTSQVVKGSGFGGGTVYSPNTAGKYALVAVCPGFVSPQSSMTDMSKRLATHGFVVVAITTNTLFDFPSSRATQLLAALKTVAALNTGAAAGKIDITRQVVSGWSMGGGGTLEAAGVTPGLTAAVAFAPWDTATTKMKTLTVPVAIFGGTNDTIAPVSGHSQKFYDIIPATTKKMLAVITGADHFFPTKASEPTSYSNISWVKRFADGDTRYSQFLNGQDAALASFTSTGPF [ESM138]; < 25 µg
3. ADNPYQRGPDPTPQSISATTGPFATASVTVPRQGNFGGGVIYYPTDTSQGTFGAVAISPGLNGTWPGIAWLGPRLSSQGFVVFGIDTLGLNDSTASRGSQLLAALDYLTQTSSVRTRVDASRLAVAGHSMGGGGAFEAVLRRPTLKASIPNAPFFPGSAANVRVPTLITAMQNDSLVGQNRNAYNGIPAGVEKAYIELAGAGHNQIGQPTTAIARNWIPWLKIFVDNDARYHQFFCPTTNMSGLSQYLNTCPLTSATPPTSSPSAGPTTPGPTGPPPGGACAATYQTVNTWSGGYQGEMTVRAGNSAINGWTVRWTMGGGQISQVWNGTLVTGSGAAAVRNAPYNGALAAGATTTFGFISSGTPSATSLTCATP [ESM064]; 164 µg

###

Attribute: purified protein yield per well
procedureDetails: purified protein yield per well (BCA); higher = higher soluble expression
experimentalEndpoint: purified protein yield per well (µg)

1. MPQQAQAGPGNPYERGPAPTEASVTAERGPFAVSQKAVPESADGRFNKGTVYYPTDTSQGTFGAVAISPGFVSPEAAVGWLGPRLASQGFVVMTLETNTPLDFPDQRADQLLGALDWLTTSSDVRERIDASRLAVAGHSMGGGASLRASEKRPTLQAAVPLTPWHTDKTWEKDPVPTLVVGAENDTVAPVAEHAEPFYSSLSAAPEKAYLELEGADHLAPVAPNVTVAKYAISWLKRYVDDDTRYEQFLCPPPRPSSTISEYRDTCPGS [TEP193]; 50.4
2. ADNPYQRGPNPTQASIAANRGTFATAETSVGGGNGFGGAKIYYPTDTSQGTFGAIAVSPGYTATWAAEGAWMGHWLASFGFVVIGIDTINRNDREYARGTQLLAALDYLTQRSSVRTRVDPNRLAVMGHSMGGGGTISAALRRPTLKAAIGLAPYYPSQSTSGMQVPTMLLAGQNDGTSTPASIVTFYNDIPASTEKVYLELTGAGHGFPTSNNSVVTRKVIPWMKIFIDQDTRYTQFLCPLQDLTGIRTYRNSCPLLPNDPGTTFSLAGSASGKCADVPGRVQTNGTGLIIWTCNNAGNQQWTQTPAGELRIYGNTKCMDANASGQGARVTINTCNGGNSQKWTVNTNGTVTNAASGRCLDAGGTADNSPVVVNTCNAASGQTWTKRP [DP047]; 311

###

Attribute: purified protein yield per well
procedureDetails: purified protein yield per well (BCA); higher = higher soluble expression
experimentalEndpoint: purified protein yield per well

1) AAPAHHAAPAHAAVHHHAPFALRTTVVPRTAVTKFGGGVIYEPRDTGKPVLGAVVITPGFTDTNADEKEYAELVASQGFVAFAIDTLDTGDIPADRATQMLAAVDWLTGSSPVKAEVSPDRVALLGYSFGGGGAMQAAQSRPSIKAVVGMMPFDAPPESDPNATTPAYPRMTTPTLVITGQEDDVADPKYFGKPAYDSIPAGTPKQYLELKGLGHGAGEHMPVPTVRTAVTAFLKRYLDGNSAYGRFICPAPKAVGPISASLSSCPRG [ESM110]; < 25 µg
2) ENPHERGPDPTEESVTAPTGPFDTDTENVSSLVSGFGGGTIYYPTDDSEGTFGGVVVAPGYTASESSMSWYGERIASQGFVVFTIDTNTRYDQPNSRGRQMESALDYLVEDSDVDDMVDGDRLALMGHSMGGGGTLAAAEDRPELRAAIPLTPWHLSKDWSDVEVPTMIVGAENDSIASTRSHAVPLYESLDEDLDSTYLELRNATHFAPNISNTTIAKYSISWLKRFVDDDVRYEQFLCPAPDTGFGTDFSDYRDSCPHGGSV [DP041]; < 25 µg
3) GRVMAASDSGTAADERVYAEPSVDPASVGSAGRNPYERGPEPTLASVAAEYGPFDTDQLTVPPGHGFNGGYIYYPTDTSQTFGAVAIVPGYTALFADEEAWMGPRLASFGFVVIGIETNSRDDWDIARGEQLLAALDYLVHHSPVRARIDANRLAVVGHSMGGGGALFAATQRPSLKAVVALAPYFPSGSLAAIRVPTMIIGGQDDTVVTPSYLDDLYASRPAHTPGAYLMLADADHLFATRPNTVEMRLLIPWLKIFVDHDTRYTQFLCPVADRSGIARHHVT [TEP126]; 166 µg

###

Attribute: PET hydrolysis
procedureDetails: PET hydrolysis, aromatic products released after 48 h (umol product/mg enzyme); higher = more PET depolymerization activity
condition: substrate: cryPow; 60 °C; pH 6.5
experimentalEndpoint: PET hydrolysis

1. ADNPYQRGPDPTNASIEAATGPFAVGTQPIVGASGFGGGQIYYPTDTSQTYGAVVIVPGFISVWAQLNWLGPRLASQGFVVIGIETSVITDLPDPRGDQALAALDWATTRSPVASRIDRTRLAAAGWSMGGGGLRRAALQRPSLKAIVGMAPWNGERNWSAVTVPTLFFGGSSDAVASPNDHAKPFYNSITRAEKDYIELRNADHFFPTSANTTMAKYFISWLKRWVDNDTRYTQFLCPGPSTGLFAPVSASMNTCPF [DP077]; 23
2. ADNPYQRGPDPTRTSVATERGPFANTSVSVPSGYGFNGGRIYYPTDTSQGTFGAIAISPGYTALFSAELAWMGPWLASHGFVVIGIETNSRNDFDTARGTQLLAALDYLTQQSPVRDRIDPNRLAVSGHSMGGGGALSAAMRRSSLKAVVGIAPYSPSSNLANDRVPTMIFSGQADTVVTPSYAMGLYNSIPAGTKSAYLEVAGGDHGFMVGRSNPVLIRTMLPFLKIFIDNDARYSQFLCPLLDNSGVVTYRSTCPFLPTTPTTPPPTG [ESM065]; < 3
3. AGNPYQRGPDPTLASVAASRGTFATAQVSVPPGNGFNGGTIYYPTDTTQGTWGAVAIVPGYTALFANEEAWMGPWLASFGFVVIGIETNSRNDFDTARGTQLLAALDYLTQKSPVRDRVDSARLGVIGHSMGGGGVVYATEHRPSLKAAVALAPFSPSQDMSTDHVPTMVMAGQNDTVVTPSYLDGLYATMPASAQSDFVQLAGADHVAYTHPNTTEMRLLIPWLKIFLDDDTRYTQFLCPLKDSTGVSMYRAKCPYVPPGGPTTSPTPTTTPTPPDGGACSATYRTVNSWSGGYQGEITVTAGGAAIDGWTVRWSLGGGQTVTQVWNGTLSTSGSTASVANASYNGSLQASASTTFGFLANGTPSTPALTCSSP [ESM084]; < 3

###

Attribute: PET hydrolysis
procedureDetails: PET hydrolysis, aromatic products released after 48 h (umol product/mg enzyme); higher = more PET depolymerization activity
condition: substrate: cryPow; 40 °C; pH 5.5
experimentalEndpoint: PET hydrolysis

1) ADNPYQRGPDPTPASVAAVNGPFATASVSVPAGYGFGGGMIYYPTDTSQGTFGGIAISPGYTALFSAELAWMGPWLASHGFVVIGIETNSRNDFDEARGTQLLAALDYLTQQSPVRTRVDPNRLAVSGHSMGGGGALNAAIRRPSLKAAVGLAPFLPSSNLANDRVPTMVFAGQQDTVVSPSYVTNLYNSLPATTESAYLEIAGGDHGFPVGRPNQVMIRTMLPFVKIFLDNDTRYSQFLCPLMDSTGVVTYRSTCPLLPPGLPTTPPTSTSSNPTVGPTTPSTTAPTTTPAPGGACTATYRTTNSWPGGFQGEVTITAGSSAINGWTVRWTLGSGQTISQVWNGEVSITGSTVSVRNAPYNGSLPASGSTTFGFLGGGSPSSPSLTCTSP [TEP165]; 11
2) DQVGQAPTADNITGNGSFATTSAAITNQTGFGGGTVYYPTADGTYPVVAIVPGFAATWSQISWLGPRVASWGFVVVGVDTTSVFDSPQQRGDEFLAALNWAANSAPASTRGKVDGTRRGVAGWSMGGGGTLEAMAKDTTLKAGVPLAPWDTTQDWSKIGKPVFIVGAQNDLIAPPASHAIPFYNSLAGPKSYLELAGADHFFPISANPTVSRAVVSWFKRFVSADDRFAPFTCGFAGAAVSAFRTTAC [TEP103]; 35

These entries and their values trace back to the supplement of paper PMC12455559.
